Molecular target: MAPK14 (human) (UniProt Q16539)
Sequence (Q16539 whole entry, looked up): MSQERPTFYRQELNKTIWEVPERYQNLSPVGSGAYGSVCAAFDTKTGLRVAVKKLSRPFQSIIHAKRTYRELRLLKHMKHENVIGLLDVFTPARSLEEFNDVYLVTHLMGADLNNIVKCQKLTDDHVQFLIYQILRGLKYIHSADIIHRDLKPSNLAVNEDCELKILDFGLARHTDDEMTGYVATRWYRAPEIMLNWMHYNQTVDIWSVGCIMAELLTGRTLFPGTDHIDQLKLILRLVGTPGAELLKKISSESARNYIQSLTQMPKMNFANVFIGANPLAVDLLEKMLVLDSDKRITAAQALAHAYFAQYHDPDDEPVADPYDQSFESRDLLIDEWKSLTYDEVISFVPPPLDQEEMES
Assay: Inhibition of MAPK14 Kinase Activity by PHAS-I Assay
Details: concentration not given here
Endpoint Name: inhibition (%)
Answers are plain numbers, in %.

> print(dat)
                                   compound  recorded.value
1  N#Cc1ccc(C(=O)NCc2[nH]nc(-c3ccc(F)cc3)c2-c2ccncc2)cc1              53
2  Cc1c(-c2ccncc2)c(-c2ccc(F)cc2)nn1CC(=O)NC(C)Cc1c[nH]c2ccccc12 (stereo not given)              65

Report inhibition for each item below.
1. COc1cccc(C(=O)NCCCc2[nH]nc(-c3ccc(F)cc3)c2-c2ccncc2)c1
2. COc1ccc(CN(CCc2ccccc2)C(=O)Cn2nc(-c3ccc(F)cc3)c(-c3ccncc3)c2C)cc1
3. Cc1c(-c2ccncc2)c(-c2ccc(F)cc2)nn1CC(=O)N[C@@H](C)c1ccccc1
4. CC(=O)OCC(=O)NCCCc1[nH]nc(-c2ccc(F)cc2)c1-c1ccncc1

Outgoing:
1: 71; 2: 75; 3: 83; 4: 74

Report inhibition for each item below.
1. COc1cc(OC)c(NC(=O)NCc2[nH]nc(-c3ccc(F)cc3)c2-c2ccncc2)cc1O
2. COc1ccc(S(=O)(=O)NCCc2[nH]nc(-c3ccc(F)cc3)c2-c2ccncc2)cc1
3. Cc1c(-c2ccncc2)c(-c2ccc(F)cc2)nn1CC(=O)Nc1ccc(CSc2ccc(Cl)cc2)cc1
4. O=C(NCCCc1[nH]nc(-c2ccc(F)cc2)c1-c1ccncc1)c1ccccc1

Outgoing:
[4, 61, 67, 78]

---

Biological target: MAPK14 (human) (UniProt Q16539)
Assay: Inhibition of LPS Stimulated TNF Production by U937 Cells
Conditions: concentration not given here
Record form. Attribute: inhibition. Fill in for each entry.
One number for each entry, in %.

Answered examples (2):
> print(dat)
                               entry.smiles  endpoint.name  recorded.value
1  COc1ccc(C(=O)NCc2[nH]nc(-c3ccc(F)cc3)c2-c2ccncc2)cc1OC     inhibition              22
2  O=S(=O)(NCCc1[nH]nc(-c2ccc(F)cc2)c1-c1ccncc1)c1ccccc1     inhibition              20

Shifting focus to the compound that follows.
Incoming: Recorded inhibition for Cc1cc(C)c(NC(=O)NCc2[nH]nc(-c3ccc(F)cc3)c2-c2ccncc2)c(C)c1 , please?
Outgoing: 25

---

Target: MAPK14 (human)
Assay: Inhibition of LPS Stimulated TNF Production by U937 Cells
Conditions: concentration not given here
Endpoint Name: inhibition (%)
Answers are plain numbers, in %.

> print(dat)
                                   molecule  endpoint.name  recorded.value
1  C[C@H](NC(=O)NCCc1[nH]nc(-c2ccc(F)cc2)c1-c1ccncc1)c1ccccc1     inhibition              12
2  COc1ccc(C2OCCN2C(=O)Cn2nc(-c3ccc(F)cc3)c(-c3ccncc3)c2C)cc1OC (stereo not given)     inhibition              18

Report inhibition for each item below.
1. C[C@H](NS(=O)(=O)c1ccc(Cl)cc1)c1[nH]nc(-c2ccc(F)cc2)c1-c1ccncc1
2. C[C@H](NS(=O)(=O)c1ccc(-c2ccccc2)cc1)c1[nH]nc(-c2ccc(F)cc2)c1-c1ccncc1
3. C[C@H](NC(=O)c1cccc(C#N)c1)c1[nH]nc(-c2ccc(F)cc2)c1-c1ccncc1
4. C[C@@H](NC(=O)c1ccc(F)cc1)c1[nH]nc(-c2ccc(F)cc2)c1-c1ccncc1
5. C[C@@H](NS(=O)(=O)c1cc(Cl)cc(Cl)c1)c1[nH]nc(-c2ccc(F)cc2)c1-c1ccncc1

Outgoing:
1. 88
2. 91
3. 22
4. 24
5. 91
